System: NCI-H23 lung
assay_details: NCI tumour cell line growth inhibition, 48 h
endpoint_label: TGI

{"columns": ["molecule", "recorded_value"],
 "data": [
  ["CC(C)NC1(C(N)=O)CCN(Cc2ccccc2)CC1", "> 100 µM"]
]}

Here are 6 molecules. What values of TGI were reported for them?
1. COc1ccc(NC(=S)N/N=C(\c2ccccc2)c2ccccn2)cc1
2. O=c1oc2c([N+](=O)[O-])cc([N+](=O)[O-])cc2c2ccccc12
3. COC(=O)C(/C(=N/NC(N)=O)C(=O)Nc1c(C)cccc1C(C)(C)C)c1nc2ccc(Cl)cc2[nH]c1=O (stereo not drawn)
4. O=C(OCc1ccccc1)c1nc2ccccc2n1S(=O)(=O)c1ccccc1
5. COc1ccc(/C=C(/C(=O)N2CCCCC2)c2cc(OC)c(OC)c(OC)c2)cc1
6. O=c1[nH]c(=O)n(C2CC(O)C(CO)O2)cc1/C=C/Br (stereo not drawn)

A:
1: 16.4 µM; 2: > 100 µM; 3: > 100 µM; 4: > 100 µM; 5: > 100 µM; 6: > 100 µM

Here are 3 molecules. What values of TGI were reported for them?
1. CCOc1ccc(C2Oc3c(cccc3OC)C=C2[N+](=O)[O-])cc1OCC (stereo not drawn)
2. N#CC(NCCc1ccccc1)c1ccc(C(C#N)NCCc2ccccc2)cc1 (stereo not drawn)
3. COC(=O)C(C)NP(=O)(OCc1ccc(Cn2cnc3c(N)ncnc32)cc1)Oc1ccccc1 (stereo not drawn)

A:
19.7 µM
> 100 µM
> 100 µM

Here are 8 molecules. What values of TGI were reported for them?
1. CCOC(=O)C(C(=O)OCC)P(=S)(S)c1ccccc1 (stereo not drawn)
2. CCOC(=O)CC1C(O)C(=O)N(C)C1c1ccccc1 (stereo not drawn)
3. CCOC(=O)c1ccc(O)cc1
4. COc1ccc(C2=Cc3nc2c(-c2ccccc2)c2ccc([nH]2)c(-c2ccccc2)c2nc(c(-c4ccccc4)c4ccc([nH]4)c3-c3ccccc3)C=C2)cc1
5. O=[N+]([O-])/C(C(Cl)=C(Cl)Cl)=C(\Nc1cccc2ccccc12)n1nnc2ccccc21
6. O=C(NCCn1ccnn1)Nc1ccccc1
7. CCN(CC)C(=S)SS(=O)(=O)c1ccc(N)cc1
8. COc1ccc(C2NC(=O)c3cc4c(cc3N2)OCO4)cc1 (stereo not drawn)

A:
1: > 100 µM; 2: > 100 µM; 3: > 100 µM; 4: > 100 µM; 5: > 100 µM; 6: > 100 µM; 7: > 100 µM; 8: > 100 µM

Here are 4 molecules. What values of TGI were reported for them?
1. CCC(=O)NC(Nc1ccccc1F)(C(F)(F)F)C(F)(F)F
2. CC(C)(C(=O)NCC(F)(F)C(F)(F)F)C(=O)N[C@@H]1C(=O)Nc2ccccc2-c2ccccc21
3. NC(=O)/C(=N\NC(=O)c1cc2ccccc2cc1O)C1C(=O)N(c2ccccc2)N=C1N (stereo not drawn)
4. O=Cc1cn(Cc2ccccc2)c2ccccc12

A:
> 100 µM
> 100 µM
56.5 µM
> 100 µM

Here are 7 molecules. What values of TGI were reported for them?
1. C#CCNCCCN1C(=O)c2ccc3c4c(ccc(c24)C1=O)C(=O)N(CCCNCC#C)C3=O
2. N#CC(C(=O)C(N)=O)c1ccccc1Cl (stereo not drawn)
3. NS(=O)(=O)c1ccc(N=Nc2c(O)[nH]c3ccc(Cl)cc23)cc1
4. CC(=O)OCc1cc(=O)n2c([nH]c3ccccc32)c1C#N
5. Nc1nc2c3c(ncn3CC(O)CO2)n1 (stereo not drawn)
6. O=C1/C(=C/c2ccc(Cl)cc2)N=C(c2ccccc2)N1c1nc2ccc(Sc3ccccc3)cc2[nH]1
7. COc1ccc(N(CN2C(=O)CCC2OC)C(C)=O)cc1 (stereo not drawn)

A:
["0.669 µM", "> 100 µM", "> 25 µM", "> 100 µM", "> 100 µM", "> 100 µM", "> 100 µM"]

Here are 2 molecules. What values of TGI were reported for them?
1. CC(C)(C)OC(=O)N(CCCN)CCCCN
2. CCNC(=O)N1CCc2c(Cl)c3c(c(OC)c2[C@@H]1[C@H]1OCc2c1ccc(OC)c2OC)OCCO3

A:
1. > 100 µM
2. > 100 µM

Here are 3 molecules. What values of TGI were reported for them?
1. COC(=O)C1(CCC(=O)N(C)c2ccccc2)NNC2C(=O)N(c3ccccc3)C(=O)C21 (stereo not drawn)
2. COc1ccc(/C=C/C(=O)c2sc(Nc3ccc([N+](=O)[O-])cc3)nc2C)cc1
3. N#CNC(=NCc1ccccc1)NCc1ccccc1

A:
1: > 10 µM; 2: 85 µM; 3: > 100 µM

Here are 7 molecules. What values of TGI were reported for them?
1. Cn1cc(-c2csc(-c3c[nH]c4ccccc34)n2)c2cccnc21
2. [N-]=[N+]=Nc1cccc(-c2n[nH]c(Cl)cc2=O)c1
3. COC(=O)C(=O)C(CC(=O)Nc1c(C)cccc1C)C(=O)OC (stereo not drawn)
4. CN/N=C(/C=C/c1ccccc1)C(C)C
5. NC(N)=N/N=C(\c1ccc(F)cc1)c1ccc(C(F)(F)F)cc1
6. COC(=O)[C@]1(C)CCC[C@]2(C)C3CC4OOC3(C=C4C(C)(C)O)CCC21 (stereo partly drawn)
7. O=C(Cc1cc(=O)oc2cc(O)ccc12)N/N=C/c1ccc(N(CCCl)CCCl)cc1

A:
["> 100 µM", "> 100 µM", "> 100 µM", "> 100 µM", "7.29 µM", "> 100 µM", "69.4 µM"]

Here are 2 molecules. What values of TGI were reported for them?
1. c1ccc(N=C(N2CCCCC2)N(CCN2CCCCC2)c2ccccc2)cc1
2. C=C1C(=O)C23CC1CCC2C12CO[C@H](O)[C@H]1C(C)(C)[C@H](OC(C)=O)C[C@H]2OC3=O (stereo partly drawn)

A:
["7.17 µM", "> 100 µM"]
